Origin of the recorded values: paper PMC12652692

# Test system: HOP-62
# METHOD: NCI60 one-dose screen
# Type: cell-based
# ASSAY_CONDITIONS: Homo sapiens; HOP-62, 10 μM; read-out: Growth percent
VALUE_KIND: activity at 10 µM (%)
# number only, unit % dropped from output

COc1ccc([P+](CCCCOc2cc(O)c3c(=O)cc(-c4ccccc4)oc3c2)(c2ccc(OC)cc2)c2ccc(OC)cc2)cc1 = -81.1

Query block: Please report activity at 10 µM for the following compound: `O=c1cc(-c2ccccc2)oc2cc(OCCCC[P+](c3ccccc3)(c3ccccc3)c3ccccn3)cc(O)c12`
Result block: -57

Query block: Identify measured activity at 10 µM associated with O=c1cc(-c2ccccc2)oc2cc(O)cc(O)c12 [compound 2, 5,7-dihydroxyflavone, reference compound]
Result block: 113

---

Assay read-out log10(GI50); system under study: MDA-MB-468.
The figures below represent log10 of GI50, where GI50 is stated in nM.

Here are 4 molecules together with their reported answers.
COc1ccc([P+](CCCCOc2cc(O)c3c(=O)cc(-c4ccccc4)oc3c2)(c2ccc(OC)cc2)c2ccc(OC)cc2)cc1 = 2.39
O=c1cc(-c2ccccc2)oc2cc(OCCCC[P+](c3ccccc3)(c3ccccc3)c3ccccc3)cc(O)c12 = 2.11
Cc1ccc([P+](CCCCOc2cc(O)c3c(=O)cc(-c4ccccc4)oc3c2)(c2ccc(C)cc2)c2ccc(C)cc2)cc1 = 2.09
O=c1cc(-c2ccccc2)oc2cc(OCCCC[P+](c3ccc(F)cc3)(c3ccc(F)cc3)c3ccc(F)cc3)cc(O)c12 = 3.04

Query block: Provide measured log10(GI50) on MDA-MB-468 for `O=c1cc(-c2ccccc2)oc2cc(OCCCC[P+](c3ccccc3)(c3ccccc3)c3ccccn3)cc(O)c12` please.
Result block: 2.25

---

# METHOD: CellTiter-Glo Luminescent Cell Viability Assay
# Assay type: cell-based, Chinese hamster
# ASSAY_CONDITIONS: Chinese hamster, CHO cells (non-tumor), CHO cells, 10^−6 M
VALUE_KIND: viability at 48 h (%)
State the answer as a number, implicitly in %.

Query block: Using the record for `COc1c(C)cc([P+](CCCCOc2cc(O)c3c(=O)cc(-c4ccccc4)oc3c2)(c2cc(C)c(OC)c(C)c2)c2cc(C)c(OC)c(C)c2)cc1C` , state its measured viability at 48 h.
Result block: 60.2

---

# Test system: NCI-H23
One threshold, 400 nM, splits the recorded GI50 values: lower ones are criterion met, equal or higher ones are criterion not met.

Known results for compounds:
COc1ccc([P+](CCCCOc2cc(O)c3c(=O)cc(-c4ccccc4)oc3c2)(c2ccc(OC)cc2)c2ccc(OC)cc2)cc1 = criterion not met
O=c1cc(-c2ccccc2)oc2cc(OCCCC[P+](C3CCCCC3)(C3CCCCC3)C3CCCCC3)cc(O)c12 = criterion not met
COc1c(C)cc([P+](CCCCOc2cc(O)c3c(=O)cc(-c4ccccc4)oc3c2)(c2cc(C)c(OC)c(C)c2)c2cc(C)c(OC)c(C)c2)cc1C = criterion met
O=c1cc(-c2ccccc2)oc2cc(OCCCC[P+](c3ccc(F)cc3)(c3ccc(F)cc3)c3ccc(F)cc3)cc(O)c12 = criterion not met
Cc1ccc([P+](CCCCOc2cc(O)c3c(=O)cc(-c4ccccc4)oc3c2)(c2ccc(C)cc2)c2ccc(C)cc2)cc1 = criterion met
Cc1ccccc1[P+](CCCCOc1cc(O)c2c(=O)cc(-c3ccccc3)oc2c1)(c1ccccc1C)c1ccccc1C = criterion met

Query block: Input `O=c1cc(-c2ccccc2)oc2cc(OCCCC[P+](c3ccccc3)(c3ccccc3)c3ccccn3)cc(O)c12` ; condition: GI50 strictly below 400 nM. Does it hold?
Result block: criterion not met

Query block: Strictly below 400 nM: is that where GI50 of `O=c1cc(-c2ccccc2)oc2cc(OCCCC[P+](c3ccccc3)(c3ccccc3)c3ccccc3)cc(O)c12` sits?
Result block: criterion met
